Molecular target: human TPO receptor (Homo sapiens)
Construct: expressed in transfected cells; host or cells: BaF-B03 (murine IL-3 dependent pro-B cell line); the resulting line is BaF/hTPOR
Experiment: Thrombopoietic activity: proliferation of TPO dependent BaF/hTPOR cell line (WST-1)
Type: cell-based
Conditions: Table 7; BaF/hTPOR cells, 20 hours incubation then WST-1 for 4 hours, absorbance at 450 nm; ED50 = half concentration of the concentration showing the maximum thrombopoietic activity
parameter-measured: pEC50
pEC50 field: float, defined as -log10 of concentration (mol/L).

Examples with their reported pEC50 follow.
O=C1NC(=O)C(=Cc2ccc(C(=O)Nc3nc(-c4ccc(F)c(Br)c4F)cs3)cc2)S1
7.08
O=C1NC(=O)C(=Cc2ccc(C(=O)Nc3nc(-c4ccc(C(F)(F)F)c(Br)c4F)cs3)cc2)S1
6.45
CCCCCc1cccc(-c2csc(NC(=O)c3ccc(C=C4SC(=O)NC4=O)cc3)n2)c1F
7.89
O=C1NC(=O)C(=Cc2ccc(C(=O)Nc3nc(-c4ccc(F)c(-c5ccccc5)c4F)cs3)cc2)S1
7.16
CCCCCc1c(F)ccc(-c2csc(NC(=O)c3ccc(C=C4SC(=O)NC4=O)cc3)n2)c1F
7.12
CCCCCCc1cccc(-c2csc(NC(=O)c3ccc(C=C4SC(=O)NC4=O)cc3)n2)c1F
8.15

The record that follows has no pEC50 shown yet.
Record CCc1cccc(-c2csc(NC(=O)c3ccc(C=C4SC(=O)NC4=O)cc3)n2)c1F . Reported pEC50: 7.74

----------
Molecular target: human TPO receptor (Homo sapiens, UniProt P40238)
Construct: expressed in transfected cells; host or cells: BaF-B03 (murine IL-3 dependent pro-B cell line); the resulting line is BaF/hTPOR
Test: Thrombopoietic activity: proliferation of TPO dependent BaF/hTPOR cell line (WST-1)
Assay type: cell-based
Conditions: Table 7; BaF/hTPOR cells, 20 hours incubation then WST-1 for 4 hours, absorbance at 450 nm; ED50 = half concentration of the concentration showing the maximum thrombopoietic activity
parameter-measured: pEC50
pEC50 here: minus log base 10 of the concentration, concentration in moles per litre.

These solved cases illustrate the format of a correct answer.
CCCCOc1cccc(-c2csc(NC(=O)c3ccc(C=C4SC(=O)NC4=O)cc3)n2)c1F
7.31
Cc1cccc(-c2csc(NC(=O)c3ccc(C=C4SC(=O)NC4=O)cc3)n2)c1F
7.60

// recorded pEC50 for O=C1NC(=O)C(=Cc2ccc(C(=O)Nc3nc(-c4cccc(Br)c4F)cs3)cc2)S1 : 7.59

Entry COc1cccc(-c2csc(NC(=O)c3ccc(C=C4SC(=O)NC4=O)cc3)n2)c1F — recorded pEC50 = 7.14

Value of pEC50 reported for the molecule CC(C)CCCCc1cccc(-c2csc(NC(=O)c3ccc(C=C4SC(=O)NC4=O)cc3)n2)c1F is 8.15

The molecule O=C1NC(=O)C(=Cc2ccc(C(=O)Nc3nc(-c4cccc(-c5ccc(F)cc5)c4F)cs3)cc2)S1 showed pEC50 equal to 7.55

----------
Target: human TPO receptor (Homo sapiens, UniProt P40238)
Construct: expressed in transfected cells; host or cells: BaF-B03 (murine IL-3 dependent pro-B cell line); the resulting line is BaF/hTPOR
Sequence (P40238 26-635): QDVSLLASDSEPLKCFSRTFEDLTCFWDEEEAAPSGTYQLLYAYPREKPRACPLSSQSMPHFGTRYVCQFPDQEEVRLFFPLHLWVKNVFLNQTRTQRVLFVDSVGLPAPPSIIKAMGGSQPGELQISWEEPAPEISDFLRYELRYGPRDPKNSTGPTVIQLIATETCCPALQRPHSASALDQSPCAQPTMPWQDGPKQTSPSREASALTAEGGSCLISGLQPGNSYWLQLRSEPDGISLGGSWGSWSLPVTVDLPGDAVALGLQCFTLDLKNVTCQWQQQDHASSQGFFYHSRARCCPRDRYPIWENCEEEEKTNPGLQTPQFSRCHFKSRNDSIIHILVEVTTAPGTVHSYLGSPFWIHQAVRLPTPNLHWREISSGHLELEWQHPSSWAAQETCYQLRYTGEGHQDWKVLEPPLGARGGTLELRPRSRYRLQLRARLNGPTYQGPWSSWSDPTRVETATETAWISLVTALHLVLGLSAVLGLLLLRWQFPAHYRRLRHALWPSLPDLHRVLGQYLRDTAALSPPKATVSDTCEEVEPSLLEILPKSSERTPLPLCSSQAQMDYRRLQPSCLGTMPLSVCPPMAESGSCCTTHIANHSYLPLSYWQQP
Test: Thrombopoietic activity: proliferation of TPO dependent BaF/hTPOR cell line (WST-1)
Type: cell-based
Conditions: BaF/hTPOR cells, 20 hours incubation then WST-1 for 4 hours, absorbance at 450 nm; ED50 = half concentration of the concentration showing the maximum thrombopoietic activity
parameter-measured: EC50 (nM)
Supply the numeric figure in nM, leaving out any unit text.

// known answers, use as guide
CCOC(=O)CCCCCc1cccc(-c2csc(NC(=O)c3ccc(/C=C4\SC(=O)NC4=O)cc3)n2)c1F
74
COc1ccc(-c2csc(NC(=O)c3ccc(/C=C4\SC(=O)NC4=O)cc3)n2)c(F)c1
75
O=C1NC(=O)/C(=C/c2ccc(C(=O)Nc3nc(-c4cc(F)c(F)c(F)c4F)cs3)cc2)S1
76

Reported EC50 (human TPO receptor (Homo sapiens, UniProt P40238)) for entry O=C1NC(=O)/C(=C/c2ccc(C(=O)Nc3nc(-c4cccc(C5CCCC5)c4F)cs3)cc2)S1 is 28

Entry O=C1NC(=O)/C(=C/c2ccc(C(=O)Nc3nc(-c4ccc(Br)cc4F)cs3)cc2)S1 ; assay system human TPO receptor (Homo sapiens, UniProt P40238); EC50 recorded at 38

Measured EC50 (human TPO receptor (Homo sapiens, UniProt P40238)), entry COC(c1cccc(-c2csc(NC(=O)c3ccc(/C=C4\SC(=O)NC4=O)cc3)n2)c1F)C1CCCCC1 (stereo not shown) : 13

The reported EC50 value, human TPO receptor (Homo sapiens, UniProt P40238), for CCOCCc1cccc(-c2csc(NC(=O)c3ccc(/C=C4\SC(=O)NC4=O)cc3)n2)c1F reads 23
